Answer each item with its documented IC50, phosphorylation by TBK1.
Molecular target: T1, full-length human Regnase-1 with a FLAG tag on the N-terminal side and a biotin ligase BirA recognition … (human, UniProt Q5D1E8 1-599, biotinylated where required ; Biotinylated at the BirA recognition sequence where required. That sequence is not in the letters.)
T1 sequence: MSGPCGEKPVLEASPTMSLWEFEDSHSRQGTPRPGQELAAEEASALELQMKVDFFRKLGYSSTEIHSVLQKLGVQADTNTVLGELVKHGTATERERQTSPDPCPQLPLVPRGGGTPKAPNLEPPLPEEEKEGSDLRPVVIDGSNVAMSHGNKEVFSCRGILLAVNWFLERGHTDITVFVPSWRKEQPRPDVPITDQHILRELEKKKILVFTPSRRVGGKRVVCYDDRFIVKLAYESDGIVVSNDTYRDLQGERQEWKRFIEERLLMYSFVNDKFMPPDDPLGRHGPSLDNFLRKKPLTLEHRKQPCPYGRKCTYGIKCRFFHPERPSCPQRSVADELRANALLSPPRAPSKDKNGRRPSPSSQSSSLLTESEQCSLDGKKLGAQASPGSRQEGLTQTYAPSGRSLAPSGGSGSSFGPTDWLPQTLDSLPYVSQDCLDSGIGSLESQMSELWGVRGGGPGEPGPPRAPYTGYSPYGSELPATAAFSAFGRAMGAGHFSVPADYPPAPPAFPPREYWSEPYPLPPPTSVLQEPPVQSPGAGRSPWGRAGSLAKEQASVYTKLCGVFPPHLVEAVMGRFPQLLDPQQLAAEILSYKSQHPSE
Experiment: cell-based or functional assay
Positions of bridges follow the written chain, without caps; N, C: chain ends. Non-standard residues stand in square brackets, D forms with d. No end group written: not given here. NMeA = CN[C@@H](C)C(=O)O; dNMeA = CN[C@H](C)C(=O)O

> print(dat)
                                  binder  recorded.result
1  [NMeA]GYANSWYNIWD (lactam N-12) [PP2]          21.7 µM

Batch request: IC50, phosphorylation by TBK1 for each of the following binders.
1. [NMeA]DIWFDYWDYD (lactam N-11) [PP18]
2. [NMeA]NFNSAYYRAIWD (lactam N-13) [PP7]
3. [dNMeA]TYGHSSWYKIWD (lactam N-13) [PP9]
4. [NMeA]YIWDFFGDLD (lactam N-11) [PP4]
5. [dNMeA]PTSSWYKIWD (lactam N-11) [PP23]

["0.6 µM", "2.2 µM", "4.2 µM", "61.9 µM", "18.8 µM"]

Batch request: IC50, phosphorylation by TBK1 for each of the following binders.
1. [NMeA]RFRQWKWVYPD (lactam N-12) [PP13]
2. [NMeA]NSWYINIWGHD (lactam N-12) [PP15]
3. [NMeA]RYAVYQWIYPD (lactam N-12) [PP12]

8.4 µM
8.5 µM
12.7 µM

Batch request: IC50, phosphorylation by TBK1 for each of the following binders.
1. [NMeA]NSWYKIWGLD (lactam N-11) [PP21]
2. [dNMeA]KHASAWYRIWD (lactam N-12) [PP3]
3. [NMeA]VFYKIWYNWD (lactam N-11) [PP19]
4. [dNMeA]SKYWNSWYNIWD (lactam N-13) [PP8]
5. [dNMeA]PNSSWFKIWD (lactam N-11) [PP6]

["13.5 µM", "3.9 µM", "3.7 µM", "2.9 µM", "13.1 µM"]

Hey, just so you know, these numbers are from patent US20220125891A1.
